tested-system: T1, recombinant human IL-23 (human, UniProt Q9NPF7 20-189; P29460 23-328)
T1 construct: also called hIL-23
T1 sequence 1: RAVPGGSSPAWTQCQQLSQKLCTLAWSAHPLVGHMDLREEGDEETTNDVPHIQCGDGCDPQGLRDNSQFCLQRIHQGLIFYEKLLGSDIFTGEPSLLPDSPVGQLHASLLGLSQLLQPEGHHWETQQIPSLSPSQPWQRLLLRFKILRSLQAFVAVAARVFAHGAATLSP
T1 sequence 2: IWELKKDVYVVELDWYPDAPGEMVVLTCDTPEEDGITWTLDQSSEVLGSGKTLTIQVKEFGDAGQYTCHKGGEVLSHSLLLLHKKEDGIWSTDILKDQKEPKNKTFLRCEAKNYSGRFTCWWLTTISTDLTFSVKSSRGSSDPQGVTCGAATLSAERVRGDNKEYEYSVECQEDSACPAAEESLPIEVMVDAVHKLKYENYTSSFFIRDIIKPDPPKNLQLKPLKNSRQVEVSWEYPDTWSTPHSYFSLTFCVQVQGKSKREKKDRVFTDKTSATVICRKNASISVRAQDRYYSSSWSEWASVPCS
experiment-description: SPR (Biacore T100), tissue culture supernatant antibody captured on anti-human IgG, IL-23 analyte
measurement-name: kon (M⁻¹ s⁻¹)

binder="A3M5 (antibody, human IgG1, kappa, V domains shown, Full length chains) VH: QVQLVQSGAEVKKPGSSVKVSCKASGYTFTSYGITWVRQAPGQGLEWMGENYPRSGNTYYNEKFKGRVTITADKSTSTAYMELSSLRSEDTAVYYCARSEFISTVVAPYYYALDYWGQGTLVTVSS VL: DIVMTQSPDSLAVSLGERATINCKASKKVTIFGSISALHWYQQKPGQPPKLIYDGAKLESGVPDRFSGSGSGTDFTLTISSLQAEDVAVYYCLQNKEVPYTFGGGTKVEIKR" recorded_number=45500

Values compiled from patent US20090123479A1.
